study.target: PI3K-α (PIK3CA) wild-type (WT), p110α/p85α complex (Homo sapiens, UniProt P42336)
Construct: Recombinant, catalytically active human full length PIK3KA Wild-type and H1047R mutant; 6×His (N); purchased EMD Millipore Sigma 14-602M
test.name: PI3K-alpha kinase (PIK3CA) biochemical activity, ADP-Glo, wild-type
condition.description: Soy PI lipid substrate
Kindly supply the reported IC50 values for the records listed here.

Reference set, count: 5
Cc1cc(C(C)Nc2ccccc2C(=O)O)c2oc(-c3ccc4nc(C)cn4c3)cc(=O)c2c1 (single isomer, unassigned) [Example 38]
1 to 5 µM
Cc1cc(C(C)Nc2ccc(Cl)nc2C(=O)O)c2oc(-c3nn(C)c4ccccc34)cc(=O)c2c1 (single isomer, unassigned)
< 0.5 µM
Cc1cc(C(C)Nc2ccc(Cl)nc2C(=O)O)c2oc(-c3ccc4c(cnn4C)c3)cc(=O)c2c1 (single isomer, unassigned) [Example 217]
1 to 5 µM
Cc1cc(C(C)Nc2ccc(Cl)nc2C(=O)O)c2oc(-c3ccc4cc[nH]c4n3)cc(=O)c2c1 (stereo not drawn) [Example 195]
0.5 to 1 µM
COc1ccc2cc(-c3cc(=O)c4cc(C)cc([C@@H](C)Nc5ccccc5C(=O)O)c4o3)cc(C)c2n1
1 to 5 µM

Data point: Cc1c(-c2ccc3nn(C)cc3c2)oc2c(C(C)Nc3ccccc3C(=O)O)cc(F)cc2c1=O (single isomer, unassigned) [Example 148] ; IC50 = 0.5 to 1 µM

----------
Kindly supply the reported IC50 values for the records listed here.
study.target: PI3K-α (PIK3CA) H1047R mutant, p110α/p85α complex (Homo sapiens, UniProt P42336, H1047R)
Construct: Recombinant, catalytically active human full length PIK3KA Wild-type and H1047R mutant; 6×His (N); purchased EMD Millipore Sigma 14-792M
Sequence (P42336 whole entry H1047R): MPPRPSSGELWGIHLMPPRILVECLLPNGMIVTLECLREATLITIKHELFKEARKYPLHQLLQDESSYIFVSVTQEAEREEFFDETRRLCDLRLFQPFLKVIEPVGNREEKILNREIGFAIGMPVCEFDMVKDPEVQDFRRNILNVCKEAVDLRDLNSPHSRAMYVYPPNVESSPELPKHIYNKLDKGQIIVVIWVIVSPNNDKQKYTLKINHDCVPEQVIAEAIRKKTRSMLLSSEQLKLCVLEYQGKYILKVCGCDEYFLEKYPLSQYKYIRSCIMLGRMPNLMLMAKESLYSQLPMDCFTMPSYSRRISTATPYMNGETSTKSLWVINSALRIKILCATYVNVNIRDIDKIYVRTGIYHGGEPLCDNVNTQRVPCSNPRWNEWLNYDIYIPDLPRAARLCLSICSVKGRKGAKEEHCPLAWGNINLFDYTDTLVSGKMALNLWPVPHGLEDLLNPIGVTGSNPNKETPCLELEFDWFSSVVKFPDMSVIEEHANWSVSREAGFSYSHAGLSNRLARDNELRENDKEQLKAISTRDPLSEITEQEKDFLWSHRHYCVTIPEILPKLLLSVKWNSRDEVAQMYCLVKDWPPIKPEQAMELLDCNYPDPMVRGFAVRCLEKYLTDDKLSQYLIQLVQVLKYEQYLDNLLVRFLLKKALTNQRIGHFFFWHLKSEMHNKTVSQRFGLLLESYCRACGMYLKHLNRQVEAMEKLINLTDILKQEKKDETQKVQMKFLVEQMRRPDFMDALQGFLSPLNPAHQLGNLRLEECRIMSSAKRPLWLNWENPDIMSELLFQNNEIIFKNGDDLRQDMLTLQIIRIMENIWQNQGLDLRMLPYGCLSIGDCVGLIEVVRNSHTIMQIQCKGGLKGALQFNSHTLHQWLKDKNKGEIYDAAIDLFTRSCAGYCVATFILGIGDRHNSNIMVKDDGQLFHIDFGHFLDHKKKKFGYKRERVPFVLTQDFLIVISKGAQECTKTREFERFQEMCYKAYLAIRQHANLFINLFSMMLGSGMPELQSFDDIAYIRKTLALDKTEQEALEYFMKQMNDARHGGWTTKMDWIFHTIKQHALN
Sequence (P27986 whole entry partner): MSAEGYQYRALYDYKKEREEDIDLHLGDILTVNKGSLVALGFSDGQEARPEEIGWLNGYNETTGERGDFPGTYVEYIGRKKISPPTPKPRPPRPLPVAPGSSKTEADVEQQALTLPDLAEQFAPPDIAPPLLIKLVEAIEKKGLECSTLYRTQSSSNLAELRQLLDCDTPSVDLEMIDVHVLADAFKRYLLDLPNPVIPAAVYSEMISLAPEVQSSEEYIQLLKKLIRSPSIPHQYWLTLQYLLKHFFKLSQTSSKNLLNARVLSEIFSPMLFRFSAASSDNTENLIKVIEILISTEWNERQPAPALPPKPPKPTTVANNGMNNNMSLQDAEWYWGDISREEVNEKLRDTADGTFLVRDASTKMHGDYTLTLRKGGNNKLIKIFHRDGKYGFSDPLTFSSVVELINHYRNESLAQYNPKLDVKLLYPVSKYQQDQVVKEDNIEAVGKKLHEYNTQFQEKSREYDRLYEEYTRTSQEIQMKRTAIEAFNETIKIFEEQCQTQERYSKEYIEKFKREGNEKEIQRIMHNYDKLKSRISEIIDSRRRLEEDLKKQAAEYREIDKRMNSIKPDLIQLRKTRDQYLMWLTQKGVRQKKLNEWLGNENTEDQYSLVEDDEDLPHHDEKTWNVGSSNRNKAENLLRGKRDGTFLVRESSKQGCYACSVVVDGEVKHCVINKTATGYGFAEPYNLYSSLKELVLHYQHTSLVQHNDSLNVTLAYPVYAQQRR
test.name: PI3K-alpha kinase (PIK3CA) biochemical activity, ADP-Glo, H1047R mutant
condition.description: Soy PI lipid substrate

Reference set, count: 2
Cc1cc(C(C)Nc2ccccc2C(=O)O)c2oc(-c3cn4ccccc4n3)cc(=O)c2c1 (single isomer, unassigned)
1000 to 5000 nM
Cc1cc(C(C)Nc2ccccc2C(=O)O)c2oc(-c3ccc4c(C#N)nn(C)c4c3)cc(=O)c2c1 (single isomer, unassigned)
< 500 nM

Give me IC50 for each of these compounds, listed below.
1. Cc1cc(C(C)Nc2ccc(C)nc2C(=O)O)c2oc(-c3nn(C)c4ccccc34)cc(=O)c2c1 (single isomer, unassigned)
2. CC(Nc1cccnc1C(=O)O)c1cc(C(F)(F)F)cc2c(=O)cc(-c3cc4ccccc4[nH]3)oc12 (stereo not shown)
3. Cc1cc([C@@H](C)Nc2ccc(C)nc2C(=O)O)c2oc(-c3ccc4nc(C)cn4c3)cc(=O)c2c1
4. Cc1cc([C@@H](C)Nc2cccc(F)c2C(=O)O)c2oc(-c3ccc4nc(C)cn4c3)c(C)c(=O)c2c1
5. Cc1cc(C(C)Nc2ccccc2C(=O)O)c2oc(-c3ccc4c(cnn4C)n3)c(C)c(=O)c2c1 (single isomer, unassigned)
6. Cc1cc(C(C)Nc2ccccc2C(=O)O)c2oc(-c3ccc4nc(C)cn4n3)cc(=O)c2c1 (single isomer, unassigned) [Example 107]
7. Cc1cc(C(C)Nc2ccccc2C(=O)O)c2oc(-c3ccc4c(C)n[nH]c4c3)cc(=O)c2c1 (single isomer, unassigned)

Result ::
< 500 nM
> 10000 nM
< 500 nM
< 500 nM
< 500 nM
500 to 1000 nM
< 500 nM

Give me IC50 for each of these compounds, listed below.
1. Cc1cc(C(C)Nc2ccccc2C(=O)O)c2oc(-c3ccc4c(cnn4C)n3)cc(=O)c2c1 (single isomer, unassigned) [Example 164]
2. Cc1cc(C(C)Nc2ccccc2C(=O)O)c2oc(-c3cnc4sc(C)nc4c3)cc(=O)c2c1 (single isomer, unassigned)
3. Cc1cc(C(C)Nc2ccccc2C(=O)O)c2oc(-c3cc4ncccc4[nH]3)cc(=O)c2c1 (single isomer, unassigned)
4. Cc1cc(C(C)Nc2ccccc2C(=O)O)c2oc(-c3ccn4c(C)nnc4c3)cc(=O)c2c1 (single isomer, unassigned)
5. Cc1cc(C(C)Nc2ccccc2C(=O)O)c2oc(-c3ccc4nn(C)cc4c3)c(C(F)(F)F)c(=O)c2c1 (single isomer, unassigned)

Result ::
["< 500 nM", "< 500 nM", "< 500 nM", "< 500 nM", "< 500 nM"]

Give me IC50 for each of these compounds, listed below.
1. Cc1cc(C(C)Nc2ccccc2C(=O)O)c2oc(-c3cc(C)c4nn(C)cc4c3)cc(=O)c2c1 (single isomer, unassigned) [Example 144]
2. COc1ccc2nc(-c3cc(=O)c4cc(C)cc(C(C)Nc5ccccc5C(=O)O)c4o3)cn2c1 (single isomer, unassigned)

Result ::
1: < 500 nM; 2: 500 to 1000 nM

Hello, the source for this data is patent US11878970B2, in case you need it.
